System: L1210 leukemia ip in BDF1 mice, survival T/C
Test: NCI In Vivo Anticancer Drug Screen. Data for tumor model L1210 Leukemia (intraperitoneal) in B6D2F1 (BDF1) mice
Conditions: endpoint: mean survival time; dose: 100.0 mg/kg/injection; schedule: Q01DX001 (ip); vehicle: Klucel (hydroxypropylcellulose) (HPC); higher = longer survival
Toxic doses and inconclusive results are not listed.
Measure: T/C

Measured T/C, CCOc1c(OC)c2c3c(c(-c4c(C)cc5c(C(C)C)c(OCC)c(OC)c6c5c4OC6OC)c(C)cc3c1C(C)C)OC2OC (stereo not given) : 94 % of control

Form field T/C, entry CCOC(=O)c1c[nH]c2c(c1=O)c(=O)n(C)c(=O)n2C : 97 % of control

Record CCCCCc1c(CCC)[nH]c(=O)[nH]c1=O . Reported T/C: 105 % of control

What the record says about CC(C)CC1NC(=O)C(NC(=O)C(Cc2ccccc2)N(C)C)C(C(C)C)Oc2ccc(cc2)/C=C\NC1=O (stereo not given) : T/C is 90 % of control

Recorded T/C (molecule Clc1cc(NCc2ccco2)ncn1 ): 97 % of control
